- Tested on: HCC 2998
- Method: NCI tumour cell line growth inhibition, 48 h
Active and inactive are the calls of the source. No stated cut-off is given here; in the data, active = GI50 up to about 1.1 µM and inactive = higher.
Respond using exactly one of the listed classes: label 1 = active, label 0 = inactive

Reference set (4 entries):
Molecule	Assayed Target	Class
CCOc1ccccc1NC(=O)C1=C(C)NC(C)=C(C(=O)Nc2ccccc2OCC)C1c1ccc2c(c1)OCO2	HCC 2998	label 0
CC(=O)c1ccc(NC(=O)/C(CC(=O)c2sc(-c3cccnc3)nc2C)=N/NC(N)=O)cc1	HCC 2998	label 0
O=C1OC(c2ccccc2)=N/C1=C\c1cn[nH]n1	HCC 2998	label 0
Cc1c(C(=O)O)oc2ccc([N+](=O)[O-])cc12	HCC 2998	label 0

In this assay, the call recorded for `CCc1cccc(=O)c([O-])c1.CCc1cccc(=O)c([O-])c1.[Bi+3].[Cl-]` was what?
label 0

Proceed to COc1ccc2c(c1)C(OC)C1c3c(cc4c(c3-2)OCO4)CCN1C (centres undefined)
label 0

Proceed to `COc1cc(CCN(C)C)cc(OC)c1OC`
label 0

Proceed to `N=c1oc2cc(O)ccc2cc1C(=O)Nc1ccccn1`
label 0

Proceed to CC1CCCP(=O)(c2ccccc2)CC1 (centres undefined)
label 0

Proceed to C=C(Cl)C(Cl)(CBr)CCC(Cl)C(C)C (centres undefined)
label 0

Proceed to `COC(=O)CCCC(=O)NC1=C(NCc2ccccc2)C(=O)c2ccccc2C1=O`
label 0
